Tested system: HIV-1 JR-CSF Env W395A (HIV-1 (isolate JR-CSF)) (UniProt P20871)
Test protocol: cell-based or functional assay
Endpoint: Fold IC50 increase relative to wild-type (fold)
Just the number please, in fold, no unit attached.

Item under review: PGT-130 (antibody, V domains shown) VH: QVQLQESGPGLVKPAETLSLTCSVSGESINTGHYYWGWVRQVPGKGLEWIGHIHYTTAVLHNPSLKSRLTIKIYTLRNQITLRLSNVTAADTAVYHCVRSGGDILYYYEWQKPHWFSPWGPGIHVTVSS VL: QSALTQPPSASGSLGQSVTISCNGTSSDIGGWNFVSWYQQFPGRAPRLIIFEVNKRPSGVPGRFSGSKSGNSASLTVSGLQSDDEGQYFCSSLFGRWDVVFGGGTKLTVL . Reported Fold IC50 increase relative to wild-type?
0.6

Another: PGT-135 (antibody, V domains shown) VH: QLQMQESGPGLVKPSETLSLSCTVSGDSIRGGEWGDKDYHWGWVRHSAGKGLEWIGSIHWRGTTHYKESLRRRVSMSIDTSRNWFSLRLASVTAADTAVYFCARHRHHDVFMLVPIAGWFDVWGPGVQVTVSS VL: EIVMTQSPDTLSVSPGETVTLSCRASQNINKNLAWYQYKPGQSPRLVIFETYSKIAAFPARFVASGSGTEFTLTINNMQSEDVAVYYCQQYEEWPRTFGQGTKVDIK
0.6

Further, for PGT-127 (antibody, V domains shown) VH: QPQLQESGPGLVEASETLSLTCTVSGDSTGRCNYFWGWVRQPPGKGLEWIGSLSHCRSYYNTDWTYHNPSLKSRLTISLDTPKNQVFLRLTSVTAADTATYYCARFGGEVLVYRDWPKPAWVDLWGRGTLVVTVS VL: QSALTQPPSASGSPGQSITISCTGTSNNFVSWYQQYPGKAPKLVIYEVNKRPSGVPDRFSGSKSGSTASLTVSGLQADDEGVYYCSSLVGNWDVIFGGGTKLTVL ?
1.6

Okay, and PGT-125 (antibody, V domains shown) VH: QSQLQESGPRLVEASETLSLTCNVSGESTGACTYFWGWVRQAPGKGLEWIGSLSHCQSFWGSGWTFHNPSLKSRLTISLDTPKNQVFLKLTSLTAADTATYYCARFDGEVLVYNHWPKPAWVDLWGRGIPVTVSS VL: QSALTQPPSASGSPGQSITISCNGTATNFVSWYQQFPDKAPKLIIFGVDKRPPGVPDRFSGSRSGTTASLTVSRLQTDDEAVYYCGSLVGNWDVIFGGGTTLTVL ?
0.9
